- System: 59 cancer cell lines
- Assay comment: NCI cytotoxicity screen, full panel
- Format: cell-based, human
- Cond: read-out: LC50 MG_MID; full panel mean-graph midpoint; listed as erlotinib
Parameter: CC50 (µM)
Respond numerically; units are µM and should not be typed.

Prompt: Query: CC50; subject: C#Cc1cccc(Nc2ncnc3cc(OCCOC)c(OCCOC)cc23)c1 [Erlotinib, reference compound]
Completion: 14.3

----------
- Test system: MDA-MB-468
- Assay comment: NCI cytotoxicity screen
- Assay type: cell-based, human
- Cond: 10.0 μM one dose
Parameter: GI %
Report as: number unit

- COc1cc(C=NNC(=O)CSc2nc3ccccc3c(=O)n2Cc2ccc(S(N)(=O)=O)cc2)cc(OC)c1OC: 19%
- NS(=O)(=O)c1ccc(Cn2c(SCC(=O)NN=Cc3ccccc3O)nc3ccccc3c2=O)cc1: 48%
- COc1cc(C(C)=NNC(=O)CSc2nc3ccccc3c(=O)n2Cc2ccc(S(N)(=O)=O)cc2)cc(OC)c1OC: 16%
- Cc1ccc(C=NNC(=O)CSc2nc3ccccc3c(=O)n2Cc2ccc(S(N)(=O)=O)cc2)cc1: 19%
- COc1cccc(C(C)=NNC(=O)CSc2nc3ccccc3c(=O)n2Cc2ccc(S(N)(=O)=O)cc2)c1: 19%
- Cc1ccc(NC(=O)c2ccc(CN3CCN(C)CC3)cc2)cc1Nc1nccc(-c2cccnc2)n1 [Imatinib, reference compound]: 29.1%
- CCN(CC)c1ccc(C=NNC(=O)CSc2nc3ccccc3c(=O)n2Cc2ccc(S(N)(=O)=O)cc2)c(O)c1: 110%

Pending molecule:
Prompt: Query (molecule): COc1cc(OC)cc(C(C)=NNC(=O)CSc2nc3ccccc3c(=O)n2Cc2ccc(S(N)(=O)=O)cc2)c1 ; field requested: GI %
Completion: 27%
